# Tested on: S. aureus Smith A9537
# method.description: MIC, 2-fold broth dilution, S. aureus Smith A9537
# Format: cell-based
# condition.notes: Staphylococcus aureus, SMITHA9537, Nutrient Broth; + 50% serum; 10-4
measure: MIC (mg/L)
Report the value in mg/L with no unit label.

Answered examples (3):
CC1=C(C(=O)O)N2C(=O)[C@@H](NC(=O)[C@H](N)c3ccc(O)cc3)[C@H]2SC1 [BL-S 578-4, reference compound] :: 1.3
N[C@@H](C(=O)N[C@@H]1C(=O)N2C(C(=O)O)=C(CSc3c[nH]nn3)CS[C@H]12)c1ccc(O)cc1 [Bl-S640, reference compound] :: 1
CC(=O)Oc1ccc([C@@H](N)C(=O)N[C@@H]2C(=O)N3C(C(=O)O)=C(CSc4c[nH]nn4)CS[C@H]23)cc1 [RN 1396] :: 1

Measured MIC, CC(=O)Oc1ccc([C@@H](N)C(=O)N[C@@H]2C(=O)N3C(C(=O)O)=C(C)CS[C@H]23)cc1 [RN 1394] : 0.6

----------
# Tested on: S. aureus Smith A9537
# method.description: MIC, 2-fold broth dilution, S. aureus Smith A9537
# Assay type: cell-based
# condition.notes: Staphylococcus aureus, SMITHA9537, Nutrient Broth; 10-4
# Protocol: Minimal inhibitory concentrations were determined by the 2-fold broth dilution method utilizing equimolar concentrations of each compound.
measure: MIC (µg/mL)
Reply with just the number (in µg/mL).

Briefly, MIC measured for `CC(=O)Oc1ccc([C@@H](N)C(=O)N[C@@H]2C(=O)N3C(C(=O)O)=C(C)CS[C@H]23)cc1` : 0.6

Item: CC1=C(C(=O)O)N2C(=O)[C@@H](NC(=O)[C@H](N)c3ccc(O)cc3)[C@H]2SC1 [BL-S 578-4, reference compound] | MIC: 1.3

molecule `CC(=O)Oc1ccc([C@@H](N)C(=O)N[C@@H]2C(=O)N3C(C(=O)O)=C(CSc4c[nH]nn4)CS[C@H]23)cc1` , MIC observed: 0.16

Reported MIC ( N[C@@H](C(=O)N[C@@H]1C(=O)N2C(C(=O)O)=C(CSc3c[nH]nn3)CS[C@H]12)c1ccc(O)cc1 [Bl-S640, reference compound] ) = 0.3

----------
Parameter 'readout' = MIC; parameter 'system' = S. aureus Meth-Res A15097.

CC(=O)Oc1ccc([C@@H](N)C(=O)N[C@@H]2C(=O)N3C(C(=O)O)=C(CSc4c[nH]nn4)CS[C@H]23)cc1 [RN 1396] :: 8 µg/mL
N[C@@H](C(=O)N[C@@H]1C(=O)N2C(C(=O)O)=C(CSc3c[nH]nn3)CS[C@H]12)c1ccc(O)cc1 [Bl-S640, reference compound] :: 4 µg/mL
CC1=C(C(=O)O)N2C(=O)[C@@H](NC(=O)[C@H](N)c3ccc(O)cc3)[C@H]2SC1 [BL-S 578-4, reference compound] :: 16 µg/mL

Now look at this entry.
Form field, MIC with S. aureus Meth-Res A15097, item CC(=O)Oc1ccc([C@@H](N)C(=O)N[C@@H]2C(=O)N3C(C(=O)O)=C(C)CS[C@H]23)cc1 [RN 1394] : 32 µg/mL

----------
# System: D. pneumoniae A9585
# method.description: MIC, 2-fold broth dilution, D. pneumoniae A9585
# Format: cell-based
# condition.notes: Streptococcus pneumoniae, 10-3 dilution of overnite broth culture, 45% AAB + 5% serum + 50% NB
# Protocol: *45% AAB + 5% serum + 50% NB **Dilution of overnite broth culture Minimal inhibitory concentrations were determined by the 2-fold broth dilution method utilizing equimolar concentrations of each compound.
measure: MIC (µg/mL)
Expressed in µg/mL, but write only the number.

N[C@@H](C(=O)N[C@@H]1C(=O)N2C(C(=O)O)=C(CSc3c[nH]nn3)CS[C@H]12)c1ccc(O)cc1 [Bl-S640, reference compound] :: 0.04
CC1=C(C(=O)O)N2C(=O)[C@@H](NC(=O)[C@H](N)c3ccc(O)cc3)[C@H]2SC1 [BL-S 578-4, reference compound] :: 0.6
CC(=O)Oc1ccc([C@@H](N)C(=O)N[C@@H]2C(=O)N3C(C(=O)O)=C(C)CS[C@H]23)cc1 :: 0.08

Now examine the next entry.
Item `CC(=O)Oc1ccc([C@@H](N)C(=O)N[C@@H]2C(=O)N3C(C(=O)O)=C(CSc4c[nH]nn4)CS[C@H]23)cc1` was tested on D. pneumoniae A9585; the reported MIC is 0.04
